The reported numbers originate from PubChem BioAssay (EPA / NIEHS).

# experiment_notes: BSK_3C_VCAM1: BioMAP Diversity Plus: 3C Assay for Vascular cell adhesion molecule 1 (VCAM1) Biomarker Activity (AID 2282999)
# details: BioMAP 3C HUVEC, VCAM1 ELISA, cytokine-stimulated; actives raise or lower the signal
The source made the active and inactive calls. The calls were made as follows: active = hit-call score of the fitted dose curve at least 0.9, where 1 is the maximum; inactive = score below 0.9.
Your answer must be one of the following: label 1 for active, label 0 for inactive

- molecular_string: "O=S(=O)(OCC(F)F)C(F)(F)F"
  classification: "label 0"
- molecular_string: "FC(F)(F)C(F)(F)C(F)(F)C(F)(F)C(F)(F)C(F)(F)C(F)(F)Br"
  classification: "label 0"
- molecular_string: "CC(C)(C)C(=O)CC(=O)C(F)(F)C(F)(F)C(F)(F)F"
  classification: "label 0"
- molecular_string: "CCO[Si](CCC(F)(F)C(F)(F)C(F)(F)C(F)(F)C(F)(F)C(F)(F)F)(OCC)OCC"
  classification: "label 0"
- molecular_string: "OCC(F)(F)C(F)(F)C(F)(F)C(F)(F)C(F)(F)C(F)F"
  classification: "label 0"

As a next step, examine the compound that follows.
stdin: Kindly provide the recorded test outcome for the following compound: `C=CC(=O)OCC(F)(F)C(F)(F)C(F)(F)C(F)(F)C(F)(F)C(F)(F)C(F)(F)F`
stdout: label 0

---

# Read-out: Tumor necrosis factor (Homo sapiens)
# experiment_notes: BSK_LPS_TNFa: BioMAP Diversity Plus: LPS Assay for Tumour Necrosis Factor alpha (TNFa) Biomarker Activity (AID 2283085)
# details: primary human HUVEC with PBMC; actives raise or lower the signal
Activity calls are given as the source filed them. The calls were made as follows: active = hit-call score of the fitted dose curve at least 0.9, where 1 is the maximum; inactive = score below 0.9.
Thanks in advance; please answer with one of these: T for active, F for inactive

Illustrative cases are given below, each with its answer.
- compound: "FC(F)(F)C(F)(F)CNCC(F)(F)C(F)(F)F"
  classification: "F"
- compound: "CCCCNc1ccccc1"
  classification: "F"
- compound: "C=CC(=O)OCC(F)(F)C(F)(F)C(F)(F)C(F)(F)C(F)(F)C(F)(F)C(F)(F)F"
  classification: "F"
- compound: "FC(F)(F)C(F)(F)C(F)(F)C(F)(F)C(F)(F)C(F)(F)C(F)(F)C(F)(F)F"
  classification: "F"
- compound: "CCc1c(Br)c(Br)c(Br)c(Br)c1Br"
  classification: "F"

stdin: Short answer needed: outcome of this test for `OCC(F)(F)C(F)(F)C(F)(F)C(F)(F)C(F)(F)C(F)(F)F` ?
stdout: F

stdin: Another compound to check: `CO[Si](OC)(c1ccccc1)c1ccccc1`
stdout: F

stdin: Here is the next compound: `NC(=O)C(F)(F)C(F)(F)C(F)(F)C(F)(F)F`
stdout: F

stdin: Would you mind doing `CC(C)(C)C(=O)CC(=O)C(F)(F)C(F)(F)C(F)(F)F` as well?
stdout: F

---

# Read-out: Matrix Metallopeptidase 1 (MMP1), MMP1 (gene 4312)
# experiment_notes: BSK_BE3C_MMP1: BioMAP Diversity Plus: BE3C Assay for Matrix Metallopeptidase 1 (MMP1) Biomarker Activity (AID 2283024)
# details: primary human bronchial epithelial cells; actives raise or lower the signal
Activity calls are given as the source filed them. The calls were made as follows: active = hit-call score of the fitted dose curve at least 0.9, where 1 is the maximum; inactive = score below 0.9.
recorded_metric: outcome

Past entries and their recorded results:
- compound: "CCCCOCCOCCOC(=O)CCCCC(=O)OCCOCCOCCCC"
  outcome: "inactive"
- compound: "FC(F)(F)C(F)(F)C(F)(F)C(F)(F)C(F)(F)C(F)(F)C(F)(F)I"
  outcome: "inactive"
- compound: "FC(F)(F)C(F)(F)C(F)(F)N(C(F)(F)C(F)(F)C(F)(F)F)C(F)(F)C(F)(F)C(F)(F)F"
  outcome: "inactive"
- compound: "O=C(O)C(F)(OC(F)(F)C(F)(OC(F)(F)C(F)(F)C(F)(F)F)C(F)(F)F)C(F)(F)F (stereo unspecified)"
  outcome: "inactive"
- compound: "OCCCC(F)(F)C(F)(F)C(F)(F)F"
  outcome: "inactive"
- compound: "FC(F)(F)C(F)(F)C(F)(F)C(F)(F)C(F)(F)C(F)(F)C(F)(F)C(F)(F)F"
  outcome: "inactive"
- compound: "FC(F)(F)C(F)(F)C(F)(F)C(F)(F)C(F)(F)C(F)(F)CCS"
  outcome: "inactive"
- compound: "O=C(O)C=C(C(F)(F)F)C(F)(F)F"
  outcome: "inactive"
- compound: "O=P(O)(O)OCCC(F)(F)C(F)(F)C(F)(F)C(F)(F)C(F)(F)C(F)(F)F"
  outcome: "inactive"
- compound: "O=C(O)C(F)(F)C(F)(F)OC(F)(F)F"
  outcome: "inactive"

Next, consider the following compound.
stdin: Quick check: outcome of `COC(=O)CCC(F)(F)C(F)(F)C(F)(F)C(F)(F)F` ?
stdout: inactive
